- experiment-summary: PK after subcutaneous administration of solutions in rats
- Format: in vivo, Wistar Han rat
- condition-info: male, Wistar Han, rat, plasma, sc, 50 mg/kg, rat mean, n=3; 1008 h; SC 50 mg/kg, 300 mg/mL in 15% water/85% PEG 300
experimental-readout: concentration at 1008 h (nM)
Give bare numbers, in nM.

Which concentration at 1008 h is reported for this compound? CC(C)(C#Cc1ccc(-c2ccc(Cl)c3c(NS(C)(=O)=O)nn(CC(F)(F)F)c23)c([C@H](Cc2cc(F)cc(F)c2)NC(=O)Cn2nc(C(F)(F)F)c3c2C(F)(F)[C@@H]2C[C@H]32)n1)S(C)(=O)=O [Formula (Ia)] 282

----------
- experiment-summary: PK after subcutaneous administration of solutions in rats
- Type: in vivo, Wistar Han rat
- condition-info: male, Wistar Han, rat, plasma, sc, 50 mg/kg, rat #1; 336 h; SC 50 mg/kg, 300 mg/mL in 15% water/85% PEG 300
experimental-readout: concentration at 336 h (nM)
One number for each entry, in nM.

Dear colleague, I am looking for the recorded concentration at 336 h of the following molecule: CC(C)(C#Cc1ccc(-c2ccc(Cl)c3c(NS(C)(=O)=O)nn(CC(F)(F)F)c23)c([C@H](Cc2cc(F)cc(F)c2)NC(=O)Cn2nc(C(F)(F)F)c3c2C(F)(F)[C@@H]2C[C@H]32)n1)S(C)(=O)=O 258

----------
- experiment-summary: PK after subcutaneous administration of solutions in dogs
- Assay type: in vivo, Beagle dog
- condition-info: Beagle, dog, plasma, sc, 6 mg/kg, dog; SC 6 mg/kg; 125 mg/mL solution (w/w %: 27.51 water, 58.92 PEG 300, 11.48 sodium salt of Formula (Ia), 2.09 poloxamer 188); mean ± SD, n=3; read-out: AUC0-14d
experimental-readout: AUC(0-t) (µM·h)
Give bare numbers, in µM·h.

GET /values?readout=AUC(0-t)&item= CC(C)(C#Cc1ccc(-c2ccc(Cl)c3c(NS(C)(=O)=O)nn(CC(F)(F)F)c23)c([C@H](Cc2cc(F)cc(F)c2)NC(=O)Cn2nc(C(F)(F)F)c3c2C(F)(F)[C@@H]2C[C@H]32)n1)S(C)(=O)=O 90.3

----------
For each of the molecules below, state its EC50 Fold-Change.
- Test system: NRTI-resistant viruses
- Type: cell-based, HIV-1
- condition-info: 6TAMs; Mutant/WT (LAI) EC50 ratio; MT-2 cells; mean ± s.d. of three experiments
Give bare numbers.

Known EC50 Fold-Change results, listed for orientation:
CC(C)(C#Cc1ccc(-c2ccc(Cl)c3c(NS(C)(=O)=O)nn(CC(F)(F)F)c23)c([C@H](Cc2cc(F)cc(F)c2)NC(=O)Cn2nc(C(F)(F)F)c3c2C(F)(F)[C@@H]2C[C@H]32)n1)S(C)(=O)=O :: 0.4
COC(=O)N[C@H](C(=O)N[C@@H](Cc1ccccc1)[C@@H](O)CN(Cc1ccc(-c2ccccn2)cc1)NC(=O)[C@@H](NC(=O)OC)C(C)(C)C)C(C)(C)C :: 0.5

Look up EC50 Fold-Change for the entries below, preserving their order.
1. C[C@H](Cn1cnc2c(N)ncnc21)OCP(=O)(O)O
2. Nc1nc(=O)n([C@@H]2CS[C@H](CO)O2)cc1F
3. COc1cc2c(cc1Cc1cccc(Cl)c1F)c(=O)c(C(=O)O)cn2[C@H](CO)C(C)C

1. 3.0
2. 4.1
3. 0.6

----------
- experiment-summary: PK after subcutaneous administration of solutions in rats
- Type: in vivo, Wistar Han rat
- condition-info: male, Wistar Han, rat, plasma, sc, 50 mg/kg, rat #3; 336 h; SC 50 mg/kg, 300 mg/mL in 15% water/85% PEG 300
experimental-readout: concentration at 336 h (nM)
Answers are plain numbers, in nM.

Quick one: concentration at 336 h of CC(C)(C#Cc1ccc(-c2ccc(Cl)c3c(NS(C)(=O)=O)nn(CC(F)(F)F)c23)c([C@H](Cc2cc(F)cc(F)c2)NC(=O)Cn2nc(C(F)(F)F)c3c2C(F)(F)[C@@H]2C[C@H]32)n1)S(C)(=O)=O ? 284

----------
- experiment-summary: PK after subcutaneous administration of solutions in dogs
- Format: in vivo, Beagle dog
- condition-info: male, beagle, dog, plasma, sc, 12 mg/kg, dog #3; 72.0 h; SC 12 mg/kg, 400 mg/mL in 15% water/85% PEG 300
experimental-readout: concentration at 72 h (nM)
Give bare numbers, in nM.

# lookup: concentration at 72 h of CC(C)(C#Cc1ccc(-c2ccc(Cl)c3c(NS(C)(=O)=O)nn(CC(F)(F)F)c23)c([C@H](Cc2cc(F)cc(F)c2)NC(=O)Cn2nc(C(F)(F)F)c3c2C(F)(F)[C@@H]2C[C@H]32)n1)S(C)(=O)=O 13.2

----------
- experiment-summary: PK after oral administration in liquid-filled capsules in dogs
- Assay type: in vivo, beagle dogs
- condition-info: dog, plasma; fasted, pentagastrin-pretreated male beagle dogs; oral LFC 7.5 mg fixed dose; 20% caprylocaproyl polyoxyl-8 glycerides and 80% glycerol monocaprylocaprate; 100 mg/mL; mean ± SD, n=6
experimental-readout: Cmax (µM)
Give bare numbers, in µM.

Request the reported Cmax associated with CC(C)(C#Cc1ccc(-c2ccc(Cl)c3c(NS(C)(=O)=O)nn(CC(F)(F)F)c23)c([C@H](Cc2cc(F)cc(F)c2)NC(=O)Cn2nc(C(F)(F)F)c3c2C(F)(F)[C@@H]2C[C@H]32)n1)S(C)(=O)=O 0.0532

----------
- experiment-summary: PK after subcutaneous administration of solutions in dogs
- Type: in vivo, Beagle dog
- condition-info: male, beagle, dog, plasma, sc, 12 mg/kg, dog #2; 1344 h; SC 12 mg/kg, 400 mg/mL in 15% water/85% PEG 300
- Protocol: Formulations containing the compound of Formula (Ia) were prepared as aqueous solutions or oral formulations and administered subcutaneously to rats, dogs, cynomolgus monkey, and/or rhesus monkey. A solution of the compound of Formula (Ia) in 10% ethanol, 13% water, and 77% PEG 200 (400 mg/mL) was prepared. The solution was administered subcutaneously to dogs at a dose of 12 mg/kg and rats at a dose of 50 mg/kg and the pharmacokinetic (PK) profile was determined. […]
experimental-readout: concentration at 1344 h (nM)
Answers are plain numbers, in nM.

Please report the recorded concentration at 1344 h for CC(C)(C#Cc1ccc(-c2ccc(Cl)c3c(NS(C)(=O)=O)nn(CC(F)(F)F)c23)c([C@H](Cc2cc(F)cc(F)c2)NC(=O)Cn2nc(C(F)(F)F)c3c2C(F)(F)[C@@H]2C[C@H]32)n1)S(C)(=O)=O . 41.2

----------
- experiment-summary: Plasma PK after single oral administration in solution, dog
- Assay type: in vivo, Beagle Dog
- condition-info: male, beagle, plasma; dog; single oral 4.0 mg/kg; solution in 5% ethanol/20% propylene glycol/45% PEG 300/30% 0.01 N HCl; mean ± SD, n=3
experimental-readout: AUC(0-inf) (µM·h)
One number for each entry, in µM·h.

# query: AUC(0-inf) of entry CC(C)(C#Cc1ccc(-c2ccc(Cl)c3c(NS(C)(=O)=O)nn(CC(F)(F)F)c23)c([C@H](Cc2cc(F)cc(F)c2)NC(=O)Cn2nc(C(F)(F)F)c3c2C(F)(F)[C@@H]2C[C@H]32)n1)S(C)(=O)=O [Formula (Ia)] 16500

----------
- experiment-summary: PK after subcutaneous administration of solutions in rats
- Assay type: in vivo, Wistar Han rat
- condition-info: Wistar Han, rat, plasma, sc, 50 mg/kg, rat; SC 50 mg/kg; 300 mg/mL solution (w/w %: 9.8 water, 65.0 PEG 300, 25.2 Formula (Ia)); mean ± SD, n=3
experimental-readout: Cmax
Respond with the figure and its unit, in that order.

Look at this molecule and give its reported Cmax. CC(C)(C#Cc1ccc(-c2ccc(Cl)c3c(NS(C)(=O)=O)nn(CC(F)(F)F)c23)c([C@H](Cc2cc(F)cc(F)c2)NC(=O)Cn2nc(C(F)(F)F)c3c2C(F)(F)[C@@H]2C[C@H]32)n1)S(C)(=O)=O 318 nM

----------
- experiment-summary: PK after subcutaneous administration of solutions in dogs
- Assay type: in vivo, Beagle dog
- condition-info: beagle, dog, plasma, sc, 12 mg/kg, dog; SC 12 mg/kg; 300 mg/mL solution (w/w %: 9.8 water, 65.0 PEG 300, 25.2 Formula (Ia)); mean ± SD, n=3
experimental-readout: Tmax (days)
One number for each entry, in days.

// returns reported Tmax for input CC(C)(C#Cc1ccc(-c2ccc(Cl)c3c(NS(C)(=O)=O)nn(CC(F)(F)F)c23)c([C@H](Cc2cc(F)cc(F)c2)NC(=O)Cn2nc(C(F)(F)F)c3c2C(F)(F)[C@@H]2C[C@H]32)n1)S(C)(=O)=O [Formula (Ia)] 14
